Values compiled from ChEMBL document CHEMBL2407035.

Biological target: UniProt:P09487
Sequence (P09487 whole entry): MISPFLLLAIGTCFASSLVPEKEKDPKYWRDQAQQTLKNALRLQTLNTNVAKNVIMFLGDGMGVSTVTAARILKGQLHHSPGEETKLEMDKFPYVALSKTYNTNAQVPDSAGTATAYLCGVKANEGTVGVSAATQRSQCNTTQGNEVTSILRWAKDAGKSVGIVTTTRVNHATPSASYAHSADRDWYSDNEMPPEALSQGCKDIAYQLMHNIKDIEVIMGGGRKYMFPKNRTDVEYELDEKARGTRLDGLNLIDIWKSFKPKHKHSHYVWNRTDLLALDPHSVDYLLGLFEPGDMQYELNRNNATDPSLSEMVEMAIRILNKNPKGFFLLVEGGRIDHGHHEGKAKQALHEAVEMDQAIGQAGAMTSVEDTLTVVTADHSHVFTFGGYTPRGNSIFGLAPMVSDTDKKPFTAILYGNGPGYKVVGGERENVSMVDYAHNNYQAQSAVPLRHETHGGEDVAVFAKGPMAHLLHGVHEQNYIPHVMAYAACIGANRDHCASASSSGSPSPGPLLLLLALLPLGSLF
pKi: −log10 of the molar value.
Parameter: pKi

{"Molecule": "CCOC1Oc2c(Br)cc(Br)cc2C(=O)/C1=C\\Nc1cccc(S(N)(=O)=O)c1 (stereo not drawn)", "Parameter": "pKi", "Measured": 4.59}
{"Molecule": "CCOC1Oc2ccc(F)cc2C(=O)/C1=C/Nc1ccc(S(=O)(=O)Nc2nnc(C)s2)cc1 (stereo not drawn)", "Parameter": "pKi", "Measured": 4.68}
{"Molecule": "CCOC1Oc2ccccc2C(=O)/C1=C/Nc1ccc(S(=O)(=O)Nc2ccccn2)cc1 (stereo not drawn)", "Parameter": "pKi", "Measured": 4.66}
{"Molecule": "CCOC1Oc2ccc(CC)cc2C(=O)/C1=C\\Nc1cccc(S(N)(=O)=O)c1 (stereo not drawn)", "Parameter": "pKi", "Measured": 4.77}
{"Molecule": "O=c1c(C2Nc3ccccc3S(=O)(=O)N2)coc2ccccc12 (stereo not drawn)", "Parameter": "pKi", "Measured": 4.57}
{"Molecule": "CCOC1Oc2ccc(F)cc2C(=O)/C1=C\\Nc1cccc(S(N)(=O)=O)c1 (stereo not drawn)", "Parameter": "pKi", "Measured": 4.74}
{"Molecule": "CCOC1Oc2ccccc2C(=O)/C1=C\\Nc1ccc(S(N)(=O)=O)cc1 (stereo not drawn)", "Parameter": "pKi", "Measured": 5.17}
{"Molecule": "CCOC1Oc2ccc(Br)cc2C(=O)/C1=C\\Nc1ccc(S(N)(=O)=O)cc1 (stereo not drawn)", "Parameter": "pKi", "Measured": 4.32}

---

Listing of entries alongside the reported inhibition.
Molecular target: 5'-nucleotidase (Homo sapiens) (UniProt P21589)
Sequence (P21589 whole entry): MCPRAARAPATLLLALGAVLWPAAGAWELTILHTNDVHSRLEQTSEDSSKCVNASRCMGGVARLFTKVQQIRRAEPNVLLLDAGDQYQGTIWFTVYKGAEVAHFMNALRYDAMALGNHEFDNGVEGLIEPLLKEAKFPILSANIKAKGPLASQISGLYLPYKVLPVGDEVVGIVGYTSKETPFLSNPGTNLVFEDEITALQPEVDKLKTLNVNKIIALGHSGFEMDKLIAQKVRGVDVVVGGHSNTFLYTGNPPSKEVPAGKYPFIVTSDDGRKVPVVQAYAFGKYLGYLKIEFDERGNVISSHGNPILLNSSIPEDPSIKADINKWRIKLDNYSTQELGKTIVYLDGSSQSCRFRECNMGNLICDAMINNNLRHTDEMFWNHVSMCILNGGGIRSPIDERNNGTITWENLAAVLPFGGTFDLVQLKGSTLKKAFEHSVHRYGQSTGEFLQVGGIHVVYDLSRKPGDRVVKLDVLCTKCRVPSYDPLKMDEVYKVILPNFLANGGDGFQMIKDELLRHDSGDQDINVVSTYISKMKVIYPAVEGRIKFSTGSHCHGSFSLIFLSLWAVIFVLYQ
Experiment: Inhibition of human Ecto-5'-NT expressed in african green monkey COS7 cells using AMP as substrate at 0.1 mM preincubated for 10 mins measured after 10 mins
Format: cell-based
Conditions: COS-7
Parameter: inhibition (%)

{"Molecule": "CCOC1Oc2c(Br)cc(Br)cc2C(=O)/C1=C\\Nc1ccc(S(N)(=O)=O)cc1 (stereo unspecified)", "Measured": 43}
{"Molecule": "CCOC1Oc2ccc(F)cc2C(=O)/C1=C\\Nc1ccc(S(N)(=O)=O)cc1 (stereo unspecified)", "Measured": 16}
{"Molecule": "CCOC1Oc2ccccc2C(=O)/C1=C\\Nc1ccc(S(N)(=O)=O)cc1 (stereo unspecified)", "Measured": 5.7}
{"Molecule": "CCOC1Oc2ccccc2C(=O)/C1=C\\Nc1cccc(S(N)(=O)=O)c1 (stereo unspecified)", "Measured": 0}
{"Molecule": "CCOC1Oc2ccc(Br)cc2C(=O)/C1=C\\Nc1ccc(S(N)(=O)=O)cc1 (stereo unspecified)", "Measured": 52}
{"Molecule": "O=c1c(C2Nc3ccccc3S(=O)(=O)N2)coc2ccccc12 (stereo unspecified)", "Measured": 0}
{"Molecule": "CCOC1Oc2ccc(CC)cc2C(=O)/C1=C\\Nc1cccc(S(N)(=O)=O)c1 (stereo unspecified)", "Measured": 30}
{"Molecule": "O=c1c(C2Nc3ccccc3S(=O)(=O)N2)coc2ccc(F)cc12 (stereo unspecified)", "Measured": 0}
{"Molecule": "CCOC1Oc2c(Br)cc(Br)cc2C(=O)/C1=C\\Nc1ccccc1S(N)(=O)=O (stereo unspecified)", "Measured": 63}
{"Molecule": "CCOC1Oc2ccc(F)cc2C(=O)/C1=C\\Nc1cccc(S(N)(=O)=O)c1 (stereo unspecified)", "Measured": 0}
{"Molecule": "CCOC1Oc2ccc(CC)cc2C(=O)/C1=C\\Nc1ccccc1S(N)(=O)=O (stereo unspecified)", "Measured": 4}
{"Molecule": "CCOC1Oc2ccc(CC)cc2C(=O)/C1=C\\Nc1ccc(S(N)(=O)=O)cc1 (stereo unspecified)", "Measured": 13}
{"Molecule": "CCOC1Oc2ccccc2C(=O)/C1=C/Nc1ccc(S(=O)(=O)Nc2cc(OC)nc(OC)n2)cc1 (stereo unspecified)", "Measured": 0}
{"Molecule": "CCOC1Oc2ccc(Br)cc2C(=O)/C1=C\\Nc1cccc(S(N)(=O)=O)c1 (stereo unspecified)", "Measured": 0}
{"Molecule": "CCOC1Oc2ccccc2C(=O)/C1=C/Nc1ccc(S(=O)(=O)Nc2nnc(C)s2)cc1 (stereo unspecified)", "Measured": 26}
{"Molecule": "CCOC1Oc2ccc(Br)cc2C(=O)/C1=C/Nc1ccc(S(=O)(=O)Nc2ccccn2)cc1 (stereo unspecified)", "Measured": 0}
{"Molecule": "CCOC1Oc2ccc(F)cc2C(=O)/C1=C/Nc1ccc(S(=O)(=O)Nc2nnc(C)s2)cc1 (stereo unspecified)", "Measured": 0}
{"Molecule": "CCOC1Oc2c(Br)cc(Br)cc2C(=O)/C1=C\\Nc1cccc(S(N)(=O)=O)c1 (stereo unspecified)", "Measured": 54}
{"Molecule": "CCOC1Oc2ccccc2C(=O)/C1=C/Nc1ccc(S(=O)(=O)Nc2ccc(OC)nn2)cc1 (stereo unspecified)", "Measured": 0}
{"Molecule": "O=c1c(C2Nc3ccccc3S(=O)(=O)N2)coc2ccc(Br)cc12 (stereo unspecified)", "Measured": 0}
{"Molecule": "CCOC1Oc2ccccc2C(=O)/C1=C/Nc1ccc(S(=O)(=O)Nc2ccccn2)cc1 (stereo unspecified)", "Measured": 0}
